// data source = patent US12263248B2

Test: Encapsulation efficiency of RNA (QUANT-IT RIBOGREEN RNA assay)
Format: physicochemical
Settings: Table 1A
resultType: EE (%)
One number for each entry, in %.

For each of the items listed, what is its EE (%)?
1. CCCCCCCCCOC(=O)CCCCCCCN(CCO)CCCCCCCC(=O)OC(CCCC)CCCC [Compound 57]
2. CCCCCCCCC(CCCCCCCC)OC(=O)CCCCCCCN(C)CCCCCCCCCC(=O)OCCCCCCC [Compound 149]
3. CCCCCCCC/C=C\COC(=O)CCCCCN(CCO)CCCCCC(=O)OC/C=C\CCCCCCCC [Compound 140]

1: 94.33; 2: 98.00; 3: 89.2

====

Kindly state PDI (Polydispersity index) for each of the entries shown.
Experiment: Particle size and polydispersity index of nanoparticle compositions (Zetasizer Nano ZS)
Format: physicochemical
Settings: lipid nanoparticle, ±SD within one assay run (Table 37)
Give bare numbers.

Worked cases, PDI (Polydispersity index) given:
> print(dat)
                                   compound  testresult
1  CCCCCCCCCCCOC(=O)CCCCCN(CCO)CCCCCCCC(=O)OC(CCCCCCCC)CCCCCCCC        0.10
2  CCCCC/C=C\C/C=C\CCCCCCCCN(CCO)CCCCCCCC(=O)OC(CCCCCCCC)CCCCCCCC        0.07
3  CCCCC/C=C\C/C=C\CCCCCCCCC(CCCCCCCC/C=C\C/C=C\CCCCC)OC(=O)CCCN(C)C [MC3, DLin-MC3-DMA, reference compound]        0.11
4  CCCCCCCCCOC(=O)CCCCCCCN(CCO)CCCCCCCC(=O)OC(CCCCCCCC)CCCCCCCC        0.04
5  CCCCCCCCCOC(=O)CCCCCCCN(CCCCCCCC(=O)OC(CCCCCCCC)CCCCCCCC)CCN(C)C        0.15

Query compound follows.
Need PDI (Polydispersity index) of CCCCCCCCC(CCCCCCCC)OC(=O)CCCCCCCN(CCO)CCCCCCCC(=O)OC(CCCCCCCC)CCCCCCCC , thanks.
0.11

====

Assay: Apparent (surface) pKa of the LNP formulation (TNS assay)
Assay type: physicochemical
Conditions: Table 1A
resultType: pKa
Give bare numbers.

Return reported pKa values for all items listed beneath this line.
1. CCCCCC/C=C\COC(=O)CCCCCCCN(CCO)CCCCCCCC(=O)OC/C=C\CCCCCC
2. CCCCCCCCCOC(=O)CCCCCCCN(CCCCCCCC(=O)OC(CCCCCCCC)CCCCCCCC)CCCNC(=S)N(C)C
3. CCCCCCCCCOC(=O)CCCCCCCN(CCO)CCCCCCCC(=O)OC(CC)CCCCCCCC (stereo not shown)
4. CCCCCCCCCOC(=O)CCCCCCCN(CCO)CCCCCCCCCOP(=O)(OCCCCCCCCC)OCCCCCCCCC
5. CCCCCCCCCOC(=O)CCCCCCCN(CCCCO)CCCCCCCC(=O)OC(CCCCCCCC)CCCCCCCC

7.04
7.13
6.85
6.98
6.87

Respectfully, I request pKa for each entry included below.
1. CCCCCCCCCOC(=O)CCCCCCCN(CCO)CCCCCCCCCC(=O)OC(CCCCCCCC)CCCCCCCC
2. CCCCCCCCCOC(=O)CCCCCCCN(CCO)CCCCCCCC(=O)OC(CCCCC)CCCCCCCC (stereo not shown)

6.84
6.80
